Origin of the recorded values: PubChem BioAssay AID588524

Quick note: these are IC50 numbers for system: Apoptotic protease-activating factor 1 (Homo sapiens)

The following compounds each have a reported value; give each one's IC50.
1. CCCCCCCCCCCCCCCC[n+]1ccc(/C=N/O)cc1
2. C#CCOCCOCCOCCNc1nc(N2CCN(C(=O)CCCCCCCCCCNC(=O)[C@H]([C@@H](C)CC)n3cc(CCCCN=C(N)N)nn3)CC2)nc(N2CCN(C(=O)CCCCCCCCCCNC(=O)[C@H](CCCCN)n3cc(C)nn3)CC2)n1
3. C#CCOCCOCCOCCNc1nc(N2CCN(C(=O)CCCCCCCCCCNC(=O)[C@@H](CCSC)n3cc(CCO)nn3)CC2)nc(N2CCN(C(=O)CCCCCCCCCCNC(=O)[C@H](CO)n3cc(CCCCCN)nn3)CC2)n1
4. C#CCOCCOCCOCCNc1nc(N2CCN(C(=O)CCCCCCCCCCNC(=O)[C@H](CO)n3cc(CCCSC)nn3)CC2)nc(N2CCN(C(=O)CCCCCCCCCCNC(=O)[C@H](CCCCN)n3cc(CCO)nn3)CC2)n1

Response:
1. 29.3 µM
2. 21.4 µM
3. 40 µM
4. 36.3 µM

----------
What follows is a collection of pIC50 values obtained with Apoptotic protease-activating factor 1 (Homo sapiens) (UniProt O14727).
Sequence (O14727 whole entry, looked up): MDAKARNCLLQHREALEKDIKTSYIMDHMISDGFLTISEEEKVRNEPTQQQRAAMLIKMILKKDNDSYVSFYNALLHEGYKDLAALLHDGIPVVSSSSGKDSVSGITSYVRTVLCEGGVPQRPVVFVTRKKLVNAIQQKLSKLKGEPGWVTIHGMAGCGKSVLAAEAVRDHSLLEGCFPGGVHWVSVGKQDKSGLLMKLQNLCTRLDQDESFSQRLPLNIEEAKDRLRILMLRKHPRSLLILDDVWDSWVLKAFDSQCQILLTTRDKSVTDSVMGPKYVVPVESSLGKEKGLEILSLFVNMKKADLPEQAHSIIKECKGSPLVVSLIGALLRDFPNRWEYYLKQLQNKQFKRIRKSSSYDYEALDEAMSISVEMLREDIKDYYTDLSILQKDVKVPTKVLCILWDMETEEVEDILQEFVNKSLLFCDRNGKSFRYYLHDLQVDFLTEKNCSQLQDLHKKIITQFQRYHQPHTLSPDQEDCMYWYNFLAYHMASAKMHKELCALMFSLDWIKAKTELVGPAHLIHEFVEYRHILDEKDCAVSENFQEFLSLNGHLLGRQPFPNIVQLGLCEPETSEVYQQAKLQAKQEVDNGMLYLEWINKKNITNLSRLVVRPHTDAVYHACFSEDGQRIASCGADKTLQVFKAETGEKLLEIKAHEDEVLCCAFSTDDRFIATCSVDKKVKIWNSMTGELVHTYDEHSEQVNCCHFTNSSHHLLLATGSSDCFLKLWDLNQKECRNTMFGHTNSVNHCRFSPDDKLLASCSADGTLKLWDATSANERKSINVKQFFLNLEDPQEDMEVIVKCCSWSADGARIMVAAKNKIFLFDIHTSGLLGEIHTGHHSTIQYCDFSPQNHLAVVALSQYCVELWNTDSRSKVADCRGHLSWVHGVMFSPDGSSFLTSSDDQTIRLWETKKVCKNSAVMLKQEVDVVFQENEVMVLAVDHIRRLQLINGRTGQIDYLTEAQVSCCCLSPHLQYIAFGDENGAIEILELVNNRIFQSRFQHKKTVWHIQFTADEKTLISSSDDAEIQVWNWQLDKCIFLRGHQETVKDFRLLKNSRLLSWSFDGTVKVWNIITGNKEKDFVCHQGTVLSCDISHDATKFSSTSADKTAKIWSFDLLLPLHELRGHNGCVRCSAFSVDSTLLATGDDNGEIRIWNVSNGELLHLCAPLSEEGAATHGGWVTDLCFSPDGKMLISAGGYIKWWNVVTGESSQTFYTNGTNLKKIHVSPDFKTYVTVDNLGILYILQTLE
Give bare numbers, as −log10 of the molar value.

1) C#CCOCCOCCOCCNc1nc(N2CCN(C(=O)CCCCCCCCCCNC(=O)Cn3cc(CCCCCN)nn3)CC2)nc(N2CCN(C(=O)CCCCCCCCCCNC(=O)[C@H]([C@@H](C)CC)n3cc(CCCCN=C(N)N)nn3)CC2)n1 | 4.89
2) C[n+]1c(-c2ccccc2)c2cc(N)ccc2c2ccc(N)cc21 | 4.61
3) C#CCOCCOCCOCCNc1nc(N2CCN(C(=O)CCCCCCCCCCNC(=O)Cn3cc(CCCCCN)nn3)CC2)nc(N2CCN(C(=O)CCCCCCCCCCNC(=O)Cn3cc(CCCCCN)nn3)CC2)n1 | 4.46
4) C#CCOCCOCCOCCNc1nc(N2CCN(C(=O)CCCCCCCCCCNC(=O)[C@H](CCCCN)n3cc(CCO)nn3)CC2)nc(N2CCN(C(=O)CCCCCCCCCCNC(=O)[C@H](CCCCN)n3cc(CCO)nn3)CC2)n1 | 4.57
5) CNc1ccc2nc3ccccc3[n+](C)c2c1 | 4.94

Each compound below has a recorded value; state its pIC50.
1. C#CCOCCOCCOCCNc1nc(N2CCN(C(=O)CCCCCCCCCCNC(=O)Cn3cc(CCCCCN)nn3)CC2)nc(N2CCN(C(=O)CCCCCCCCCCNC(=O)[C@H]([C@@H](C)CC)n3cc(CCCCCN)nn3)CC2)n1
2. C#CCOCCOCCOCCNc1nc(N2CCN(C(=O)CCCCCCCCCCNC(=O)[C@H](CCCCN)n3cc(C)nn3)CC2)nc(N2CCN(C(=O)CCCCCCCCCCNC(=O)[C@H](CCCN=C(N)N)n3cc(C[C@@H](C)CC)nn3)CC2)n1
3. C#CCOCCOCCOCCNc1nc(N2CCN(C(=O)CCCCCCCCCCNC(=O)Cn3cc(CCCCCN)nn3)CC2)nc(N2CCN(C(=O)CCCCCCCCCCNC(=O)[C@H](CO)n3cc(CCCSC)nn3)CC2)n1

Response:
1: 4.61; 2: 4.82; 3: 4.61
